Kindly supply the reported CAF (10 minutes/60 minutes) at 10 micromolar: 60 minutes values for the records listed here.
- MEASURED_ON: KRAS 4B G12C protein (Homo sapiens, UniProt P01116, G12C)
- Construct: This protein contained 188 amino acids in total, including an N-terminal 6-Histidine tag; made in house; host or cells: E. coli BL21
- PROTOCOL_DESCRIPTION: In vitro covalent adduct formation (CAF) assay by LC-MS
- Assay type: binding
- SETUP_CONDITIONS: 60 minutes; compound 10 μM, protein 5 μM, 22° C.; percentage of protein bound by the compound

Worked set:
| COMPOUND | REPORTED_VALUE |
| --- | --- |
| C=CC(=O)N1[C@H](C)CN(c2nc(OC[C@@H]3CCCN3C)nc3c2CN(Cc2c(Cl)ccc(O)c2C)C3)C[C@H]1C [1-341] | 0%/ 0% |
| CN1CCC[C@H]1COc1nc2c(c(N3CCN(C(=O)C45CC4C5)[C@@H](CC#N)C3)n1)CN(Cc1ccccc1Cl)C2 (stereo partly shown) [1-317] | 0%/ 0% |
| C=CC(=O)N1CCN(c2nc(OC[C@@H]3CCCN3C)nc3c2CN(Cc2c(O)cccc2Cl)C3)C[C@@H]1CC#N [1-51] | 98%/ 98% |
| C=CC(=O)N1C[C@H](C)N(c2nc(OC[C@@H]3CCCN3C)nc3c2CN(Cc2c(C)ccc4[nH]ncc24)C3)C[C@H]1C [1-22] | 15% |
| C=CC(=O)N1CCN(c2nc(OC[C@@H]3CCCN3C)nc3c2CN(Cc2c(O)cccc2F)C3)C[C@@H]1CC#N [1-7] | 97% |
| C=CC(=O)N1CCN(c2nc(OC[C@@H]3CCCN3C)nc3c2CN(Cc2cccc4ccccc24)C3)C[C@@H]1CC#N [1-164] | 95% |

Shifting focus to the compound that follows.
Which measured CAF (10 minutes/60 minutes) at 10 micromolar: 60 minutes value corresponds to C=CC(=O)N1CCN(c2nc(SC)nc3c2CN(C2CCc4ccccc42)C3)C[C@@H]1CC#N (stereo partly shown) [1-136] ?
56%
